test system: THP1 cells; test: cells; conditions: Homo sapiens, THP-1, 72 h, read-out: apoptosis EC50 THP1 (C.L. 95%)
RECORDED_METRIC: EC50

>>> assay_value("Cc1cc(Oc2ccccc2)c(C(C)C)cc1NC(=O)c1c(O)nn2ccccc12")
"499 nM"
>>> assay_value("Cc1cc(NC(=O)c2c(O)nn3ccccc23)c(C(C)C)cc1Oc1ccc(C(F)(F)F)cc1")
"230 nM"
>>> assay_value("Cc1cc(NC(=O)c2c(O)nn3ccccc23)c(C(C)C)cc1Oc1ccncc1")
"2650 nM"

* * *

Recorded measurements of pIC50, one per entry
biological target: recombinant hDHODH (Homo sapiens, UniProt Q02127); construct: plasmid construct pFN2A–truncated hDHODH (31-395); made in house; host or cells: E. coli BL21DE3-Gold (DE3); format: biochemical; conditions: recombinant hDHODH, in vitro assay; read-out: hDHODH IC50 ± SE
Sequence (Q02127 31-395): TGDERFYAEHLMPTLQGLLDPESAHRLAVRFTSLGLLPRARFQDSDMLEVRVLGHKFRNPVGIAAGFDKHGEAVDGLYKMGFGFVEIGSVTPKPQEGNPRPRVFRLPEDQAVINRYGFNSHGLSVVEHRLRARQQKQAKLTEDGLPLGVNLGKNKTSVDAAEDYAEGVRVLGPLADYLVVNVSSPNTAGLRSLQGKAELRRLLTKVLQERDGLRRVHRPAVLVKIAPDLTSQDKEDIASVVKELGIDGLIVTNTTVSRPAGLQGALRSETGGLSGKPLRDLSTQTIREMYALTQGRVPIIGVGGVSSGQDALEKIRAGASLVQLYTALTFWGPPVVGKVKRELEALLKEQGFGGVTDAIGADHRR
pIC50: −log10 of the molar value.
RECORDED_METRIC: pIC50

>>> assay_value("O=C(Nc1ccc2c(c1)nnn2-c1ccccc1)c1c(O)nn2ccccc12")
5.14
>>> assay_value("CCC(CC)Oc1cc(Oc2ccccc2)c(C)cc1NC(=O)c1c(O)nn2ccccc12")
5.66
>>> assay_value("CCC(C)Oc1cc(Oc2ccccc2)c(C)cc1NC(=O)c1c(O)nn2ccccc12 (centres unmarked)")
5.41
>>> assay_value("CCCC(C)Oc1cc(Oc2ccccc2)c(C)cc1NC(=O)c1c(O)nn2ccccc12 (centres unmarked)")
5.15
>>> assay_value("Cc1cc(NC(=O)c2c(O)nn3ccccc23)c(OC(C)C)cc1Oc1ccccc1")
5.28
>>> assay_value("Cc1cc(Sc2ccncc2)c(C)cc1NC(=O)c1c(O)nn2ccccc12")
5.66

* * *

RECORDED_METRIC: melting point

>>> assay_value("Cc1cc(Sc2ccncc2)c(C)cc1NC(=O)c1c(O)nn2ccccc12 [Compound 17]")
"250.5 to 251.9 °C (dec.)"
>>> assay_value("Cc1cc(NC(=O)c2c(O)nn3ccccc23)c(OC2CCC2)cc1Oc1ccccc1 [Compound 7]")
"262.5 to 263.3 °C (dec.)"
>>> assay_value("O=C(Nc1ccc(Oc2ccccc2)cn1)c1c(O)nn2ccccc12 [Compound 15]")
"161.1 to 161.9 °C (dec.)"
>>> assay_value("O=C(Nc1ccc(Oc2cccc(C(F)(F)F)c2)cn1)c1c(O)nn2ccccc12 [Compound 16]")
"241.2 to 242 °C (dec.)"
>>> assay_value("CCCC(C)Oc1cc(Oc2ccccc2)c(C)cc1NC(=O)c1c(O)nn2ccccc12 (centres unmarked) [Compound 10]")
"250.5 to 251.3 °C (dec.)"

* * *

test: log D7.4 by shake-flask method; conditions: pH 7.4
RECORDED_METRIC: logD

>>> assay_value("Cc1cc(NC(=O)c2c(O)nn3ccccc23)c(C(C)C)cc1Oc1ccncc1")
2.51
>>> assay_value("O=C(Nc1ccc2[nH]ccc2c1)c1c(O)nn2ccccc12")
0.45
>>> assay_value("Cc1cc(NC(=O)c2c(O)nn3ccccc23)c(C(C)C)cc1Oc1ccccc1")
3.18
>>> assay_value("Cc1cc(Sc2ccncc2)c(C)cc1NC(=O)c1c(O)nn2ccccc12")
1.76
>>> assay_value("O=C(Nc1ccc2c(ccn2-c2ccccc2)c1)c1c(O)nn2ccccc12")
2.89
>>> assay_value("O=C(Nc1ccc2c(c1)ncn2-c1ccccc1)c1c(O)nn2ccccc12")
2.55
>>> assay_value("Cc1cc(Oc2ccccc2)c(C(C)C)cc1NC(=O)c1c(O)nn2ccccc12")
2.91
>>> assay_value("O=C(Nc1ccc2c(c1)nnn2-c1ccccc1)c1c(O)nn2ccccc12")
1.59

* * *

test: physchem; conditions: potentiometric titration
RECORDED_METRIC: pKa

>>> assay_value("O=C(Nc1ccc2[nH]ccc2c1)c1c(O)nn2ccccc12")
4.85

* * *

Recorded cytotoxicity (effect≥30% ± SD) for the following molecules
tested on: Jurkat T-cells; assay: CFSE-based cytotoxic activity assay; assay type: cell-based, human; details: 3 days, concentration inducing cytotoxicity in ≥30% of cells
RECORDED_METRIC: cytotoxicity (effect≥30% ± SD) (nM)

>>> assay_value("Cc1cc(NC(=O)c2c(O)nn3ccccc23)c(C(C)C)cc1Oc1ccc(C(F)(F)F)cc1")
71320
>>> assay_value("Cc1cc(NC(=O)c2c(O)nn3ccccc23)c(C(C)C)cc1Oc1ccncc1")
75830

* * *

We begin with a simple list: items and their reported melting point.
RECORDED_METRIC: melting point

>>> assay_value("Cc1cc(NC(=O)c2c(O)nn3ccccc23)c(OC(C)C)cc1Oc1ccccc1")
"239.3 to 240.6 °C (dec.)"
>>> assay_value("O=C(Nc1ccc2c(c1)ncn2-c1ccccc1)c1c(O)nn2ccccc12")
"258.7 to 260.1 °C (dec.)"
>>> assay_value("O=C(Nc1ccc2c(ccn2-c2ccccc2)c1)c1c(O)nn2ccccc12")
"252.4 to 253.8 °C (dec.)"
>>> assay_value("O=C(Nc1ccc2c(c1)nnn2-c1ccccc1)c1c(O)nn2ccccc12")
"269.9 to 271.9 °C (dec.)"
>>> assay_value("Cc1cc(Oc2ccccc2)ccc1NC(=O)c1c(O)nn2ccccc12")
"238.3 to 239.9 °C"

* * *

test system: U937 cells; conditions: read-out: differentiation EC50 U937 (C.L. 95%); U937, CD14/CD11b expression
RECORDED_METRIC: EC50

>>> assay_value("Cc1c(-c2ccc(-c3ccccc3F)cc2)nc2ccc(F)cc2c1C(=O)O [Brequinar]")
"214 nM"

* * *

molecular target: recombinant hDHODH (Homo sapiens, UniProt Q02127); construct: plasmid construct pFN2A–truncated hDHODH (31-395); made in house; host or cells: E. coli BL21DE3-Gold (DE3); type: biochemical; conditions: recombinant hDHODH, in vitro assay; read-out: hDHODH IC50 ± SE
pIC50: −log10 of the molar value.
Reported pIC50 values are given for each entry in this list.
RECORDED_METRIC: pIC50

>>> assay_value("O=C(Nc1ccc2c(ccn2-c2ccccc2)c1)c1c(O)nn2ccccc12")
5.55
>>> assay_value("Cc1cc(Oc2ccccc2)c(C)cc1NC(=O)c1c(O)nn2ccccc12")
7.30

* * *

Property: Activity (pIC50); scope: individual compounds
target: recombinant hDHODH (Homo sapiens, UniProt Q02127); construct: plasmid construct pFN2A–truncated hDHODH (31-395); made in house; host or cells: E. coli BL21DE3-Gold (DE3); type: biochemical; conditions: from hDHODH IC50, used for correlation with binding energy
RECORDED_METRIC: Activity (pIC50)

>>> assay_value("CCC(C)Oc1cc(Oc2ccccc2)c(C)cc1NC(=O)c1c(O)nn2ccccc12 (stereo not drawn)")
5.41
>>> assay_value("O=C(Nc1ccc2c(ccn2-c2ccccc2)c1)c1c(O)nn2ccccc12")
5.55
>>> assay_value("CCC(CC)Oc1cc(Oc2ccccc2)c(C)cc1NC(=O)c1c(O)nn2ccccc12")
5.66
>>> assay_value("Cc1cc(NC(=O)c2c(O)nn3ccccc23)c(OC(C)C)cc1Oc1ccccc1")
5.28
>>> assay_value("CCCC(C)Oc1cc(Oc2ccccc2)c(C)cc1NC(=O)c1c(O)nn2ccccc12 (stereo not drawn)")
5.15
>>> assay_value("Cc1cc(Oc2ccccc2)c(C)cc1NC(=O)c1c(O)nn2ccccc12")
7.30
>>> assay_value("O=C(Nc1ccc2c(c1)nnn2-c1ccccc1)c1c(O)nn2ccccc12")
5.14
>>> assay_value("Cc1cc(NC(=O)c2c(O)nn3ccccc23)ccc1Oc1ccccc1")
6.32
>>> assay_value("Cc1cc(Sc2ccncc2)c(C)cc1NC(=O)c1c(O)nn2ccccc12")
5.66

* * *

The reader will find reported solubility at 24 h values listed item by item below.
Assay: Solubility assay in PBS at pH 7.4
Assay type: physicochemical
Conditions: aqueous buffer, thermodynamic from solid, PBS pH 7.4, 25 °C, LOD set at 6 µM
Method: These suspensions were filtered through a PTFE 0.45 μm filter (VWR), and the solutions were chromatographically analyzed using a Perkin Elmer UHPLC instrument, equipped with a reverse-phase (RP) C18 Phenomenex column (2.1 × 100 mm, 1.7 μm particle size). […] The flow rate was 0.5 mL/min. The standard injection volume was either 2 or 4 μL for poorly soluble compounds. […] The wavelengths that were monitored for each compound were defined according to the compound’s own absorption spectrum. […]
RECORDED_METRIC: solubility at 24 h (µM)

>>> assay_value("O=C(Nc1ccc(Oc2ccccc2)cn1)c1c(O)nn2ccccc12")
1850
>>> assay_value("Cc1cc(NC(=O)c2c(O)nn3ccccc23)c(C(C)C)cc1Oc1ccncc1")
111

* * *

molecular target: recombinant hDHODH (Homo sapiens, UniProt Q02127); construct: plasmid construct pFN2A–truncated hDHODH (31-395); made in house; host or cells: E. coli BL21DE3-Gold (DE3); type: biochemical; details: recombinant hDHODH; read-out: hDHODH IC50 ± SE
pIC50: −log10 of the molar value.
RECORDED_METRIC: pIC50

>>> assay_value("Cc1cc(Oc2ccccc2)c(C)cc1NC(=O)c1c(O)nn2ccccc12 [Compound 1]")
7.30

The reported measurements were obtained from paper PMC9574863.
